Documented self-cleavage across a set of variants
B1: CPEB3 Ribozyme (parent)
chain: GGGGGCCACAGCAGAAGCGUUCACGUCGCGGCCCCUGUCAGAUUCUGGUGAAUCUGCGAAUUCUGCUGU

Variants of: B1
Assay Overview: self-cleavage, relative activity (ratio to wild type); higher = more cleavage; co-transcriptional

Example cases with answers are listed next.
Mutation Key	self-cleavage
G2C C54G	0.0261
G28U A51U	0.182
G25U U26G	0.0885

Could you tell me which self-cleavage is on file for G48U G65A ?
0.961

Could you tell me which self-cleavage is on file for A51G A52G ?
0.925

Could you tell me which self-cleavage is on file for C33U U44C ?
0.938

Could you tell me which self-cleavage is on file for G56U C57U ?
0.322

Could you tell me which self-cleavage is on file for G37C U64A ?
0.267

Could you tell me which self-cleavage is on file for G17U C27U ?
0.105

Could you tell me which self-cleavage is on file for C45G C66U ?
0.961

Could you tell me which self-cleavage is on file for A15G A40C ?
0.631

Could you tell me which self-cleavage is on file for C18G G58A ?
0.104

Could you tell me which self-cleavage is on file for G28A G41U ?
0.148

Could you tell me which self-cleavage is on file for C12U C27G ?
0.174
